assay: Cytotoxicity against mouse NIH/3T3 cells assessed as growth inhibition at 50 ug/ml after 48 hrs by MTT assay relative to control; format: cell-based, NIH3T3; details: read-out: GI
// label = Condition met if inhibition at 48 h, 50 ug/ml is not less than 20%, otherwise Condition not met

* CCOC(=O)Cn1cc(COCc2c(-c3ccc(Cl)cc3)nc3sc(C)nn23)nn1 | Condition met
* Cc1nn2c(COCc3cn(CC#N)nn3)c(-c3ccc(Cl)cc3)nc2s1 | Condition met
* COc1ccc(-c2nc3sc(C)nn3c2COCc2cn(Cc3ccccc3)nn2)cc1 | Condition met
* COc1ccc(-c2nc3sc(C)nn3c2COCc2cn(Cc3ccc(F)cc3)nn2)cc1 | Condition not met
